# key: entry, value: pIC50
Tgt: UniProt:P31749
Sequence (P31749 whole entry): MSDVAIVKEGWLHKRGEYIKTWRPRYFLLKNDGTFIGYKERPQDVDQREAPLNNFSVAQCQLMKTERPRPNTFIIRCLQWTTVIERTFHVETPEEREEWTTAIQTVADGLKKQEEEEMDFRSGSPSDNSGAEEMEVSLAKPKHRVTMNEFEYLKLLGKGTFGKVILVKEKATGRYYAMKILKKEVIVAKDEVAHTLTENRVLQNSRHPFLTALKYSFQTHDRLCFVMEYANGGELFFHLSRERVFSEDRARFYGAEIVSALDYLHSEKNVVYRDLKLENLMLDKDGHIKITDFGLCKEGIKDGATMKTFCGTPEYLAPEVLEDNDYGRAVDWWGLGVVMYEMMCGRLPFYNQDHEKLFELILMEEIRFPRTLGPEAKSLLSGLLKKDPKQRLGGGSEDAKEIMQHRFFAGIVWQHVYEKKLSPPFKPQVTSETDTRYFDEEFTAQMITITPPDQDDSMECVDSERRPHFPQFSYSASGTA
Test name: Luciferase-coupled chemiluminescence kinase assay (ATP consumption)
Format: biochemical
Assay setup: read-out: AKT-1 IC50
Procedure: One measure of inhibition is Ki. […] The Ki for a compound is determined from the IC50 based on three assumptions. First, only one compound molecule binds to the enzyme and there is no cooperativity. […] Kinase activity is measured as the percent of ATP consumed following the kinase reaction using luciferase-luciferin-coupled chemiluminescence. […] Total ATP consumption was limited to 25-60% and the IC50 values correlate well with those determined by radiometric assays.
pIC50: −log10 of the molar value.

# count of solved cases: 2
| Line notation | Reported |
| --- | --- |
| CCc1n[nH]c2ncnc(N3CCN(c4cc(Cl)cc(OCCN(C)C)c4OC)CC3)c12 | 5.00 to 6.00 |
| CCc1n[nH]c2ncnc(N3CCN(c4cc(Cl)cc(CN(C)C)c4OC)CC3)c12 | ≤ 5.00 |

[ask] State measured pIC50 of the compound Fc1ccccc1N1CCN(c2ncnc3[nH]cnc23)CC1 with UniProt:P31749.
[reply] ≤ 5.00

[ask] Report pIC50 from UniProt:P31749 testing of CCN(CC)CCCc1n[nH]c2ncnc(N3CCN(c4cc(Cl)ccc4C)CC3)c12
[reply] 5.00 to 6.00

[ask] Write down measured pIC50 (UniProt:P31749) for this compound. CCc1n[nH]c2ncnc(N3CCN(c4cc(Cl)cc(C(=O)NCCN(C)C)c4OC)CC3)c12
[reply] 5.00 to 6.00
